Sourced from ChEMBL document CHEMBL1201862

Biological target: Sentrin-specific protease 7 (Homo sapiens, UniProt Q9BQF6)
Sequence (Q9BQF6 whole entry): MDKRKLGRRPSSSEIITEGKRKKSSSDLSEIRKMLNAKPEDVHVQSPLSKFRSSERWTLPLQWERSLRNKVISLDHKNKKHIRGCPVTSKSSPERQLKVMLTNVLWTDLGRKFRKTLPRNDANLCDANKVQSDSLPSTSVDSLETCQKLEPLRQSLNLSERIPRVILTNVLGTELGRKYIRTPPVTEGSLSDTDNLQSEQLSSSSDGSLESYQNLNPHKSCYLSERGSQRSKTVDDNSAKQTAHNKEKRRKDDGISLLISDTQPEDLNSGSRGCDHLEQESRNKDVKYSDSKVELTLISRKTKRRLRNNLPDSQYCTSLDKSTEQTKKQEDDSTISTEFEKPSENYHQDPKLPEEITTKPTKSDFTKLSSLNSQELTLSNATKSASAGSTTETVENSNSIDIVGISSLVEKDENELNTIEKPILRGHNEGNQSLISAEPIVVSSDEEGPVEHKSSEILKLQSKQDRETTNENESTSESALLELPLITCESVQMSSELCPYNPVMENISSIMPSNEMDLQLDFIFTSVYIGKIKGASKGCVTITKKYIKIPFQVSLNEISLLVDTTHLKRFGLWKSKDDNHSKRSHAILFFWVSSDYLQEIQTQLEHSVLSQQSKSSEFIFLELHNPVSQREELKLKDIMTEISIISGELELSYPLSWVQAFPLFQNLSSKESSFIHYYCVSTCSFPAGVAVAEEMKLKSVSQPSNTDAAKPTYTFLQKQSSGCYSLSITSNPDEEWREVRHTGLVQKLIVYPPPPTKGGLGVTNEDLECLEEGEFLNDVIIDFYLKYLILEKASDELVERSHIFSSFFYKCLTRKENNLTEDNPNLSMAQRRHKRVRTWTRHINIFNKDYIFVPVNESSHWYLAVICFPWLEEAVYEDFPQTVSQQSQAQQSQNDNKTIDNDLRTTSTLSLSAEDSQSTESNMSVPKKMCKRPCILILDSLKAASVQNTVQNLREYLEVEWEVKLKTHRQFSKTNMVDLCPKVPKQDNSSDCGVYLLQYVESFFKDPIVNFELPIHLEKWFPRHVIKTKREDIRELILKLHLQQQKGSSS
Assay: SENP7 protease inhibitors, SAR follow-up, biochemical, luminescence (AID 504497)
Type: functional
Activity calls are given as the source filed them.
Your reply should match one of these outcome classes. active, inactive

Look over these answered cases.
MOLECULE	GROUP
Fc1ccc(N/N=C/c2c[nH]c3ccccc23)cc1	active
COc1ccc(C(=O)NN=c2c(=O)c3ccccc3c2=O)cc1	inactive
O=C(Nc1ccc(F)cc1)c1ccc2c(c1)OCO2	active
O=C(O)CCN1C(=O)/C(=C/c2cccc(OCC(=O)Nc3ccc(Cl)cc3)c2)SC1=S	active

Query: In this assay, the call recorded for COc1ccc2c(C#N)c3ccccn3c2c1 was what?
Reply: inactive

---

Target: Zinc finger protein mex-5 (Caenorhabditis elegans, UniProt Q9XUB2)
Sequence (Q9XUB2 whole entry): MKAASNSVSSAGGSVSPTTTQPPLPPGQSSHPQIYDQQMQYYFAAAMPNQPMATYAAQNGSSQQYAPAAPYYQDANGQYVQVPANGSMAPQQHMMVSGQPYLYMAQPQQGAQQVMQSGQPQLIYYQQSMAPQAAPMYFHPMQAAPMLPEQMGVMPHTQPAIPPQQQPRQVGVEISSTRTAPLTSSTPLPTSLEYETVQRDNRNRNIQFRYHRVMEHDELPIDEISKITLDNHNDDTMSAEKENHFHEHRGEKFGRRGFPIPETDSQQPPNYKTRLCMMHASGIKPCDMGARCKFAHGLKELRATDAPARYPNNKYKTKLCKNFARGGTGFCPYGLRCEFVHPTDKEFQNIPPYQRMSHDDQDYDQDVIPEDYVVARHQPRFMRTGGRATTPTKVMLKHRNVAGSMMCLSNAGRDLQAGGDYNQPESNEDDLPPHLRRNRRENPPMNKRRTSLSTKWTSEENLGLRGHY
Assay: MEX-5/TCR-2 RNA interaction inhibitors, dose response, biochemical, C. elegans, fluorescence polarization (AID 1960)
Activity calls are given as the source filed them.
Entries and their measured EC50 follow.

Solved entries (count: 8):
COMPOUND	EC50
C=CC1=C(C)c2cc3[nH]c(cc4nc(cc5[nH]c(cc1n2)c(C)c5CCC(=O)O)C(CCC(=O)O)=C4C)c(C)c3C=C	8.89 µM (active)
Cc1cc(C)c(N2C(=O)NC(=O)/C(=C\NNC(=O)c3ccncc3)C2=O)c(C)c1	36.6 µM (active)
Brc1cc2c(cc1C1Nc3ccccc3C3C=CCC31)OCO2 (centres undefined)	> 300 µM (not active)
CCOc1cccc(C2C(C(=O)c3ccc(C)o3)=C(O)C(=O)N2c2nccs2)c1 (centres undefined)	1.27 µM (active)
N=c1c(S(=O)(=O)c2ccccc2)cc2c(=O)n3ccccc3nc2n1Cc1cccnc1	6.91 µM (inconclusive)
Cc1ccc(C2C3CN(C(C)C)CC=C3C(C#N)=C(N)C2(C#N)C#N)cc1 (centres undefined)	8.29 µM (inconclusive)
C/C(=N\c1ccc(Br)cc1)c1sc2ccccc2c1O	> 300 µM (inconclusive)
O=C(NNS(=O)(=O)c1ccc([N+](=O)[O-])cc1)C(=O)Nc1cccc(C(=O)O)c1	12.3 µM (inconclusive)

Query: Query the reported EC50 for Zinc finger protein mex-5 (Caenorhabditis elegans, UniProt Q9XUB2); item: O=C(O)c1cccc(-n2cccc2C=C2C(=O)c3ccccc3C2=O)c1
Reply: 48.5 µM (active)

---

Experiment: microbe, parasite or virus in culture
Assay type: functional
Conditions: Mycobacterium tuberculosis
The source made the active and inactive calls.
Listed next: entries and their corresponding CC50.

These solved cases illustrate the format of a correct answer.
MOLECULE	CC50
Cc1csc(NC(=O)CCCC(=O)O)c1-c1nc2ccccc2s1	> 40 µM (active)
Cn1nc(C(C)(C)C)cc1NC(=O)Nc1cc(Cl)cc(Cl)c1	11.3 µM (active)
Cc1ccc2nc(N/C(N)=N/C(=O)NC3CCCCC3)nc(C)c2c1	21.1 µM (active)

Consider now this further compound.
Query: CC50 lookup needed for O=C1C=C(c2ccc3[nH]ccc3c2)C[C@@H](c2ccc(Cl)cc2)C1 , thanks.
Reply: > 40 µM (active)

---

Biological target: Tyrosyl-DNA phosphodiesterase 2 (Homo sapiens)
Sequence (O95551 whole entry): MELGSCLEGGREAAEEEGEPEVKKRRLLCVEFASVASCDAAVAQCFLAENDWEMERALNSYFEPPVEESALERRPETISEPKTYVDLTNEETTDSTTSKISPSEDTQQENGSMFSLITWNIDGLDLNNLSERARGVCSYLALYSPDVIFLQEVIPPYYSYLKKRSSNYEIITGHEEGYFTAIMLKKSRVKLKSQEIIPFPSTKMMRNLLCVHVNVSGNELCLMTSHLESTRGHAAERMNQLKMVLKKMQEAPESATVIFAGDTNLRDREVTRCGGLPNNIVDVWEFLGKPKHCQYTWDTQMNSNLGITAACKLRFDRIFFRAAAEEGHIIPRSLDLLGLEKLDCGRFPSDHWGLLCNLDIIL
Test: human TDP2 enzyme inhibitors, dose response, biochemical, epi absorbance, IC50 (AID 743297)
Active and inactive are the calls of the source.
Items are presented alongside their recorded IC50.

MOLECULE	REPORTED_VALUE
COc1ccc(O)c(C(c2c(C)[nH][nH]c2=O)c2c(C)[nH][nH]c2=O)c1	33.6 µM (inactive)
Cc1ccccc1-c1cc2c(nn1)-c1ccccc1C2=O	32 µM (inactive)

Query: What value of IC50 on Tyrosyl-DNA phosphodiesterase 2 (Homo sapiens) does COc1ccccc1Nc1cc2cc(Br)ccc2c(=O)[nH]1 have?
Reply: 10.7 µM (inactive)

Query: Report IC50 for Oc1ccc(/N=C/c2sc3ccccc3c2Cl)cc1 tested on Tyrosyl-DNA phosphodiesterase 2 (Homo sapiens).
Reply: > 128 µM (inactive)
